Values compiled from ChEMBL document CHEMBL4024789.

Test system: MEF
Measurement description: Cytotoxicity against TDP1-/- MEF assessed as reduction in cell viability by MTT assay
Assay type: cell-based
Condition label: Mus musculus
pIC50: −log10 of the molar value.
Observable: pIC50

Q) // pIC50 lookup, key: CN(C)c1ccc(-c2c3nc(c(-c4ccc(N(C)C)cc4)c4ccc([nH]4)c(-c4ccc(C(=O)O)cc4)c4nc(c(-c5ccc(C(=O)O)cc5)c5ccc2[nH]5)C=C4)C=C3)cc1
A) < 5.00

====

Tested on: HeLa
Measurement description: Cytotoxicity against human HeLa cells assessed as reduction in cell viability by MTT assay
Format: functional, cell-based
Observable: IC50 (µM)
Give the quantity in µM, number only.

Q) // IC50 lookup, key: CN(C)c1ccc(-c2c3nc(c(-c4ccc(N(C)C)cc4)c4ccc([nH]4)c(-c4ccc(C(=O)O)cc4)c4nc(c(-c5ccc(C(=O)O)cc5)c5ccc2[nH]5)C=C4)C=C3)cc1
A) 4.13
